- ASSAY TARGET: hPPAR α (LBD) (Homo sapiens, UniProt Q07869)
- Construct: A receptor expression plasmid (pSG5-GAL4-hPPAR α or γ or δ (LBD)); GAL4 (fusion partner); expressed in transfected cells; host or cells: CV-1 cells (ATCC)
- Sequence (Q07869 239-466 limits assumed): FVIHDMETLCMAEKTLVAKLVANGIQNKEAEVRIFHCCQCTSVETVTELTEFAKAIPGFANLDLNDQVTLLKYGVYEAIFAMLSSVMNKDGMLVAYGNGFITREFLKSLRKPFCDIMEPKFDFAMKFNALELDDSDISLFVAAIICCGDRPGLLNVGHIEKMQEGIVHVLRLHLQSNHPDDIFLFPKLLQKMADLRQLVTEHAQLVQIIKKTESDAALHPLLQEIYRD
- EXPERIMENT: GAL4-hPPAR α (LBD) luciferase reporter transactivation in CV-1 cells
- Type: cell-based
- CONDITION SET: Table 28, test compound 10^−6 M, relative to 100% of compound of Example 2 of Patent Publication 4 at 10^−6 M
QUANTITY NAME: PPAR activity (%) α

Cc1cc(C(=O)CCc2sc(-c3ccc(C(F)(F)F)cc3)cc2C(C)C)ccc1OC(C)(C)C(=O)O 99
CCCCCCn1nc(-c2ccc(C)cc2)cc1CCC(=O)c1ccc(OC(C)(C)C(=O)O)c(C)c1 123
CCCCCCc1cc(-c2ccc(C)cc2)sc1CCC(=O)c1ccc(OC(C)(C)C(=O)O)c(C)c1 109

* * *

- ASSAY TARGET: hPPAR δ (LBD) (Homo sapiens, UniProt Q03181)
- Construct: A receptor expression plasmid (pSG5-GAL4-hPPAR α or γ or δ (LBD)); GAL4 (fusion partner); expressed in transfected cells; host or cells: CV-1 cells (ATCC)
- EXPERIMENT: GAL4-hPPAR δ (LBD) luciferase reporter transactivation in CV-1 cells
- Assay type: cell-based
- CONDITION SET: Table 28, test compound 10^−6 M, relative to 100% of GW-501516 at 10^−7 M
QUANTITY NAME: PPAR activity (%) δ

Cc1cc(C(=O)CCc2sc(-c3ccc(C(F)(F)F)cc3)cc2C(C)C)ccc1OCC(=O)O 92
Cc1cc(C(=O)CCc2sc(-c3ccc(C(F)(F)F)cc3)cc2C(C)C)ccc1OC(C)(C)C(=O)O 85
CCCCCCn1nc(-c2ccc(C)cc2)cc1CCC(=O)c1ccc(OC(C)(C)C(=O)O)c(C)c1 94
CCCCCCc1cc(-c2ccc(C)cc2)sc1CCC(=O)c1ccc(OC(C)(C)C(=O)O)c(C)c1 76

* * *

- ASSAY TARGET: hPPAR γ (LBD) (Homo sapiens, UniProt P37231)
- Construct: A receptor expression plasmid (pSG5-GAL4-hPPAR α or γ or δ (LBD)); GAL4 (fusion partner); expressed in transfected cells; host or cells: CV-1 cells (ATCC)
- Sequence (P37231 238-503 limits assumed): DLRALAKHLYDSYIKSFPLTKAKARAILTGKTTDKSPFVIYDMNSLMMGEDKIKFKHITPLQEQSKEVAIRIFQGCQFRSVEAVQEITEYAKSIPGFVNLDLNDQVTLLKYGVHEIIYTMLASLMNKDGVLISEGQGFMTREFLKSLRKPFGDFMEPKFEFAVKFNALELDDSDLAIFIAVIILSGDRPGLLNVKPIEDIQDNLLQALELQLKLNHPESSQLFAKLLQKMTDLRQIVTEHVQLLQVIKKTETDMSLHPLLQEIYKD
- EXPERIMENT: GAL4-hPPAR γ (LBD) luciferase reporter transactivation in CV-1 cells
- Type: cell-based
- CONDITION SET: test compound 10^−6 M, relative to 100% of Rosiglitazone at 10^−5 M
QUANTITY NAME: PPAR activity (%) γ

Cc1ccc(-n2cc(CCC(=O)c3ccc(OC(C)(C)C(=O)O)c(C)c3)c(C(C)C)n2)nc1 30

(P) Cc1cc(C(=O)CCc2sc(-c3ccc(C(F)(F)F)cc3)cc2C)ccc1OC(C)(C)C(=O)O
(Q) Cc1cc(C(=O)CCc2cc(-c3ccc(C(F)(F)F)cc3)nn2C(C)C)ccc1OC(C)(C)C(=O)O
Quick check, higher PPAR activity (%) γ between P and Q ? Write down the label of the entry you select.
P

* * *

- ASSAY TARGET: hPPAR γ (LBD) (Homo sapiens)
- Construct: A receptor expression plasmid (pSG5-GAL4-hPPAR α or γ or δ (LBD)); GAL4 (fusion partner); expressed in transfected cells; host or cells: CV-1 cells (ATCC)
- EXPERIMENT: GAL4-hPPAR γ (LBD) luciferase reporter transactivation in CV-1 cells
- Assay type: cell-based
- CONDITION SET: test compound 10^−6 M, relative to 100% of Rosiglitazone at 10^−5 M
QUANTITY NAME: PPAR activity (%) γ

COMPOUND	PPAR activity (%) γ
CCCCCCn1nc(-c2ccc(C(F)(F)F)cc2)cc1CCC(=O)c1ccc(OC(C)(C)C(=O)O)c(C)c1 [Example 10]	54
Cc1cc(C(C)CCc2cc(-c3ccc(C(F)(F)F)cc3)nn2C(C)C)ccc1OC(C)(C)C(=O)O (stereo not shown) [Example 8]	61

* * *

- ASSAY TARGET: hPPAR γ (LBD) (Homo sapiens)
- Construct: A receptor expression plasmid (pSG5-GAL4-hPPAR α or γ or δ (LBD)); GAL4 (fusion partner); expressed in transfected cells; host or cells: CV-1 cells (ATCC)
- EXPERIMENT: GAL4-hPPAR γ (LBD) luciferase reporter transactivation in CV-1 cells
- Assay type: cell-based
- CONDITION SET: Table 28, test compound 10^−6 M, relative to 100% of Rosiglitazone at 10^−5 M
QUANTITY NAME: PPAR activity (%) γ

CCCCCCn1nc(-c2ccc(C)cc2)cc1CCC(=O)c1ccc(OC(C)(C)C(=O)O)c(C)c1 48

(A) CCCCCCc1cc(-c2ccc(C)cc2)sc1CCC(=O)c1ccc(OC(C)(C)C(=O)O)c(C)c1
(B) Cc1cc(C(=O)CCc2sc(-c3ccc(C(F)(F)F)cc3)cc2C(C)C)ccc1OC(C)(C)C(=O)O
Hey, which is lower on measured PPAR activity (%) γ, A or B ? State your choice using its label.
B
(B: 11%, A: 35%)

* * *

- ASSAY TARGET: hPPAR γ (LBD) (Homo sapiens, UniProt P37231)
- Construct: A receptor expression plasmid (pSG5-GAL4-hPPAR α or γ or δ (LBD)); GAL4 (fusion partner); expressed in transfected cells; host or cells: CV-1 cells (ATCC)
- EXPERIMENT: GAL4-hPPAR γ (LBD) luciferase reporter transactivation in CV-1 cells
- Assay type: cell-based
- CONDITION SET: test compound 10^−6 M, relative to 100% of Rosiglitazone at 10^−5 M
QUANTITY NAME: PPAR activity (%) γ

COMPOUND	ASSAY TARGET	ENDPOINT UNIT	PPAR activity (%) γ
C=C(CCc1cc(-c2ccc(C(F)(F)F)cc2)nn1C(C)C)c1ccc(OC(C)(C)C(=O)O)c(C)c1 [Example 7]	hPPAR γ (LBD) (Homo sapiens, UniProt P37231)	%	38

(a) Cc1cc(C(=O)CCc2cc(-c3ccc(C(F)(F)F)cc3)nn2C(C)C)ccc1OC(C)C(=O)O (stereo not shown) [Example 9]
(b) Cc1cc(C(=O)CCc2cn(-c3ccc(C(F)(F)F)cc3)nc2C(C)C)ccc1OC(C)(C)C(=O)O [Example 1]
Select the item whose PPAR activity (%) γ value is smaller, choosing between a and b . Respond using the label that marks the chosen record.
b

* * *

- ASSAY TARGET: hPPAR δ (LBD) (Homo sapiens, UniProt Q03181)
- Construct: A receptor expression plasmid (pSG5-GAL4-hPPAR α or γ or δ (LBD)); GAL4 (fusion partner); expressed in transfected cells; host or cells: CV-1 cells (ATCC)
- Sequence (Q03181 211-439 limits assumed): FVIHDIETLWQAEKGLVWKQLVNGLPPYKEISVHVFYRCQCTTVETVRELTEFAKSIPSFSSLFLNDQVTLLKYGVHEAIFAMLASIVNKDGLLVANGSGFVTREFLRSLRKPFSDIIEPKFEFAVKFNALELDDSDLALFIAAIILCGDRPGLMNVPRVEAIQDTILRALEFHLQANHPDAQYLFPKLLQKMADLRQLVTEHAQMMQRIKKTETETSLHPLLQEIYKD
- EXPERIMENT: GAL4-hPPAR δ (LBD) luciferase reporter transactivation in CV-1 cells
- Type: cell-based
- CONDITION SET: test compound 10^−6 M, relative to 100% of GW-501516 at 10^−7 M
QUANTITY NAME: PPAR activity (%) δ

MOLECULE	ENDPOINT UNIT	REPORTED VALUE
Cc1ccc(-n2cc(CCC(=O)c3ccc(OC(C)(C)C(=O)O)c(C)c3)c(C(C)C)n2)nc1	%	72
Cc1cc(C(=O)CCc2cn(-c3ccc(C(F)(F)F)cc3)nc2C(C)C)ccc1OCC(=O)O	%	76
C=C(CCc1cc(-c2ccc(C(F)(F)F)cc2)nn1C(C)C)c1ccc(OC(C)(C)C(=O)O)c(C)c1	%	72

(P) Cc1cc(C(=O)CCc2cc(-c3ccc(C(F)(F)F)cc3)nn2C(C)C)ccc1OCC(=O)O
(Q) Cc1cc(C(=O)CCc2cc(-c3ccc(C(F)(F)F)cc3)nn2C(C)C)ccc1OC(C)C(=O)O (stereo not drawn)
Please choose the item with the lower PPAR activity (%) δ value from this pair: P and Q Response format: the label of the selected entry.
Q

* * *

- ASSAY TARGET: hPPAR δ (LBD) (Homo sapiens, UniProt Q03181)
- Construct: A receptor expression plasmid (pSG5-GAL4-hPPAR α or γ or δ (LBD)); GAL4 (fusion partner); expressed in transfected cells; host or cells: CV-1 cells (ATCC)
- EXPERIMENT: GAL4-hPPAR δ (LBD) luciferase reporter transactivation in CV-1 cells
- Format: cell-based
- CONDITION SET: test compound 10^−6 M, relative to 100% of GW-501516 at 10^−7 M
QUANTITY NAME: PPAR activity (%) δ

COMPOUND	PPAR activity (%) δ
Cc1cc(C(=O)CCc2sc(-c3ccc(C(F)(F)F)cc3)cc2C)ccc1OCC(=O)O [Example 13]	82
Cc1cc(C(=O)CCc2cn(-c3ccc(C(F)(F)F)cc3)nc2C(C)C)ccc1OC(C)(C)C(=O)O [Example 1]	87
CCCCCCn1nc(-c2ccc(C(F)(F)F)cc2)cc1CCC(=O)c1ccc(OCC(=O)O)c(C)c1 [Example 11]	81
Cc1cc(C(=O)CCc2sc(-c3ccc(C(F)(F)F)cc3)cc2C)ccc1OC(C)(C)C(=O)O [Example 12]	94

Entry source: patent US20090240058A1
